MEASURED_ON: Adenosine receptor A1 (Homo sapiens) (UniProt P30542)
Sequence (whole entry): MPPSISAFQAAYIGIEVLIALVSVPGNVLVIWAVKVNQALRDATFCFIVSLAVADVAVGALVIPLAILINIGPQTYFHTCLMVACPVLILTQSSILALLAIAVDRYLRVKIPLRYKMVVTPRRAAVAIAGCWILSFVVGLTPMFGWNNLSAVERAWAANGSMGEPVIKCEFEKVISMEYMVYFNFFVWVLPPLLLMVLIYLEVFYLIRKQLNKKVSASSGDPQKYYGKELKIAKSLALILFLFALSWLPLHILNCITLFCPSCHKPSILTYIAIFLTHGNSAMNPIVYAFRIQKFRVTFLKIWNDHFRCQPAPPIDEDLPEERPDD
EXPERIMENT_SUMMARY: Percent change in cAMP content of CHO (Chinese hamster ovary) cells expressing human Adenosine A1 receptor at 0.1 uM
Type: functional, cell-based
RECORDED_METRIC: Change (%)

q: Dear colleague, I am looking for the recorded Change of the following compound: `Nc1sc2c(c1C(=O)c1ccc3ccccc3c1)CCN(Cc1cccc(Cl)c1)C2`
a: -12

I = Cc1sc(N)c(C(=O)c2ccc(I)c3ccccc23)c1C
II = Cc1sc(N)c(C(=O)c2ccc(Cl)c3ccccc23)c1C
q: // compare measured Change between I and II ; output the lower one Pick one and reply with its label.
a: II
(II: -18%, I: -3%)
